# Tested on: mice
# protocol-details: toxicity in mice, intraperitoneal (Irwin's test)
# Format: in vivo
# recorded-conditions: mouse, in vivo, ip
The entries below come with measured Dose which brings about the death of one animal out of three in Irwin's test values attached.

See these solved cases before continuing.
>>> df
                                   compound  value_reported
0    O=C(O)C(O)N1CCCC1=O (stereo not shown)     > 102 mg/kg
1  O=C(O)C(CCO)N1CCCC1=O (stereo not shown)    > 1222 mg/kg
2  O=C(C(CCO)N1CCCC1=O)N1CCN(Cc2ccccc2)CC1 (stereo not shown)     > 345 mg/kg
3  O=C(NC1CCCC1)C(CCO)N1CCCC1=O (stereo not shown)     > 762 mg/kg
4  CCCCC1CCN(C(CCO)C(N)=O)C1=O (stereo not shown)    > 1452 mg/kg
5  NC(=O)C(CCO)N1CC(c2ccc(Cl)cc2)C(c2ccccc2)C1=O (stereo not shown)     > 224 mg/kg

# context switch: different compound, same Dose which brings about the death of one animal out of three in Irwin's test
What the record says about O=C(NC1CCCCC1)C(CCO)N1CCCC1=O (stereo not shown) : Dose which brings about the death of one animal out of three in Irwin's test is > 1608 mg/kg
